# target.or.system: KRAS G13D (Homo sapiens (Human), UniProt P01116+P62937, G13D)
# Sequence (P01116 other isoform, or with tags, fused parts or gaps G13D): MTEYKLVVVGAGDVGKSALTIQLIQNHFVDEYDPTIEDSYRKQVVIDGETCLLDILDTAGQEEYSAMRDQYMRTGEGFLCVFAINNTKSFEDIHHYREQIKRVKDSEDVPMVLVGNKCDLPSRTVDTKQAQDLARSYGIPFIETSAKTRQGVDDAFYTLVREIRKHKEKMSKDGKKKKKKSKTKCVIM
# Sequence (P62937 whole entry): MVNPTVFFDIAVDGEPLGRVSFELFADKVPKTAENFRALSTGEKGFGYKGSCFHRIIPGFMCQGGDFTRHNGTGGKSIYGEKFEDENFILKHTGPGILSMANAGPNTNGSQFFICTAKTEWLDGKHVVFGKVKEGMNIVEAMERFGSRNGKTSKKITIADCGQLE
# assay.protocol: Ras-Raf disruption/FRET/MOA assay (BRAF RBD, Cyclophilin A)
# Format: biochemical
# condition.summary: read-out: KRAS G13D FRET data IC50
pIC50: −log10 of the molar value.
measurement.type: pIC50

CCn1c(-c2cccnc2[C@H](C)OC)c2c3cc(ccc31)-c1csc(n1)C[C@H](NC(=O)[C@H](C(C)C)N(C)C(=O)N1CCOC[C@@H]1C)C(=O)N1CCC[C@H](N1)C(=O)OCC(C)(C)C2 = 6.00 to 7.00
CCn1c(-c2cccnc2[C@H](C)OC)c2c3cc(ccc31)-c1csc(n1)C[C@H](NC(=O)[C@H](C(C)C)N(C)C(=O)N1CCC[C@H](N(C)C)C1)C(=O)N1CCC[C@H](N1)C(=O)OCC(C)(C)C2 = 6.00 to 7.00
CCn1c(-c2cccnc2[C@H](C)OC)c2c3cc(ccc31)-c1csc(n1)C[C@H](NC(=O)[C@H](C(C)C)N(C)C(=O)N1CC3(CC(N(C)C4COC4)C3)C1)C(=O)N1CCC[C@H](N1)C(=O)OCC(C)(C)C2 = 5.00 to 6.00
CCn1c(-c2cccnc2[C@H](C)OC)c2c3cc(ccc31)-c1cc(O)cc(c1)C[C@H](NC(=O)[C@H](C(C)C)N(C)C(=O)[C@@H]1C[C@@H]1F)C(=O)N1CCC[C@H](N1)C(=O)OCC(C)(C)C2 = 6.00 to 7.00

Problem: Can you share its pIC50? I mean this compound: `CCn1c(-c2cccnc2[C@H](C)OC)c2c3cc(ccc31)-c1csc(n1)C[C@H](NC(=O)[C@H](C(C)C)N(C)C(=O)N1CCCC3(CN(C)C3)C1)C(=O)N1CCC[C@H](N1)C(=O)OCC(C)(C)C2`
Result: 6.00 to 7.00

Problem: Can you share its pIC50? I mean this compound: `CCn1c(-c2cccnc2[C@H](C)OC)c2c3cc(ccc31)-c1csc(n1)C[C@H](NC(=O)[C@H](C(C)C)N(C)C(=O)N1CC(O)(CN(C)C)C1)C(=O)N1CCC[C@H](N1)C(=O)OCC(C)(C)C2`
Result: 6.00 to 7.00

Problem: Can you share its pIC50? I mean this compound: `CCn1c(-c2cccnc2[C@H](C)OC)c2c3cc(ccc31)-c1csc(n1)C[C@H](NC(=O)[C@H](C(C)C)N(C)C(=O)N1CCCC13CN(C)C3)C(=O)N1CCC[C@H](N1)C(=O)OCC(C)(C)C2`
Result: 6.00 to 7.00

Problem: Can you share its pIC50? I mean this compound: `CCn1c(-c2cccnc2[C@H](C)OC)c2c3cc(ccc31)-c1csc(n1)C[C@H](NC(=O)[C@H](C(C)C)N(C)C(=O)N1CCN(C(C)=O)CC1)C(=O)N1CCC[C@H](N1)C(=O)OCC(C)(C)C2`
Result: 6.00 to 7.00

Problem: Can you share its pIC50? I mean this compound: `CCn1c(-c2cccnc2[C@H](C)OC)c2c3cc(ccc31)-c1csc(n1)C[C@H](NC(=O)[C@H](C(C)C)N(C)C(=O)N1CCN(C)CC13CC3)C(=O)N1CCC[C@H](N1)C(=O)OCC(C)(C)C2`
Result: 5.00 to 6.00
